# Protocol summary: chemical genetic growth profiling, strain panel (AID 1159580);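 further: tested at 20 µM; growth read once vehicle control cultures reached saturation at 30 °C; 1 = growth at the plate median or of vehicle wells; lower values mean less growth of the strain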
# Condition label: S. cerevisiae deletion strains, growth OD, locus YDR137W, strain rgp1, active compounds read low
In all, about 5,500 compounds went through this assay and about 2,000 (36%) were called active. About 18% were inconclusive and are not listed. The list shows a part of the results.
So basically: is normalized growth under 1? Then True. Not under? Then False.

{"Compound": "COc1c2c(c(CC=C(C)C)c3oc(=O)c(-c4ccc(O)cc4)c(O)c13)OC(C)(C)C=C2", "Category": "True"}
{"Compound": "COc1ccc2c(c1)OC[C@@H](Cc1ccc(OC)c(OC)c1)[C@@H]2O", "Category": "True"}
{"Compound": "CC(=O)O[C@H]1C(=O)[C@@]2(C)C([C@H](OC(=O)c3ccccc3)[C@]3(O)C[C@H](O)C(C)=C1C3(C)C)[C@]1(OC(C)=O)CO[C@@H]1C[C@@H]2O (some centres undefined)", "Category": "False"}
{"Compound": "Cc1cccc(Nc2cc(Cl)nc(SCC(=O)O)n2)c1C", "Category": "True"}
{"Compound": "COC(=O)C1[C@H]2C[C@H]3c4[nH]c5ccccc5c4CCN3C[C@@H]2CC[C@@H]1O (some centres undefined)", "Category": "True"}
{"Compound": "CC1(C)C2CC[C@]3(C)C(C(=O)C=C4[C@@H]5C[C@@](C)(C(=O)O)CC[C@]5(C)CC[C@]43C)[C@@]2(C)CC[C@@H]1OC(=O)CCC(=O)O (some centres undefined)", "Category": "True"}
{"Compound": "CCCCCC(C)N (centres undefined)", "Category": "False"}
{"Compound": "CC(=O)O[C@]1(C(C)=O)CCC2C3C[C@H](C)C4=CC(=O)CC[C@]4(C)C3CC[C@@]21C (some centres undefined)", "Category": "True"}
{"Compound": "COc1ccc(-c2coc3c(O)c(OC)ccc3c2=O)cc1", "Category": "True"}
{"Compound": "COc1cc2c(cc1OC)C(=O)C(CC1CCN(Cc3ccccc3)CC1)C2 (centres undefined)", "Category": "True"}
{"Compound": "CC1(C)C2CC[C@]3(C)C(C(=O)C=C4[C@@H]5C[C@@](C)(C(=O)O)CC[C@]5(C)CC[C@]43C)[C@@]2(C)CC[C@@H]1O (some centres undefined)", "Category": "True"}
{"Compound": "COc1ccc2cc1Oc1ccc(cc1)C[C@H]1c3c(cc4c(c3Oc3cc5c(cc3OC)CCN(C)[C@@H]5C2)OCO4)CCN1C", "Category": "False"}

* * *

Below: a set of entries, each annotated with reported normalized growth.
# Protocol summary: chemical genetic growth profiling, strain panel (AID 1159580);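 further: tested at 20 µM; growth read once vehicle control cultures reached saturation at 30 °C; 1 = growth at the plate median or of vehicle wells; lower values mean less growth of the strain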
# Condition label: S. cerevisiae deletion strains, growth OD, locus YDL185W, strain tfp1, active compounds read low
The whole screen tested about 5,500 compounds, of which about 2,000 (36%) were called active. About 18% were inconclusive and are not listed. This is one part of the list.
Measure name: normalized growth

{"Compound": "COc1ccc(-c2coc3c(O)c(OC)ccc3c2=O)cc1", "Measure name": "normalized growth", "Number": 0.888}
{"Compound": "O=c1ccc2ccccc2o1", "Measure name": "normalized growth", "Number": 0.982}
{"Compound": "CCC1(C)CC(=O)NC1=O (stereo not given)", "Measure name": "normalized growth", "Number": 1.02}
{"Compound": "O=c1ccc2cc(O)c(O)cc2o1", "Measure name": "normalized growth", "Number": 0.987}
{"Compound": "CCC1(c2ccccc2)C(=O)NCNC1=O", "Measure name": "normalized growth", "Number": 0.991}
{"Compound": "CO[C@H]1C[C@H](O[C@H]2[C@H](C)[C@@H](OC3O[C@H](C)C[C@H](N(C)C)[C@H]3O)[C@@H](C)C[C@]3(CO3)C(=O)[C@H](C)[C@@H](O)[C@@H](C)[C@@H](C)OC(=O)[C@@H]2C)O[C@@H](C)[C@@H]1O (stereo not given in full)", "Measure name": "normalized growth", "Number": 1.01}
{"Compound": "CC(=O)O[C@@](C)(CCC=C(C)C)C1CC=C(C)CC1 (stereo not given in full)", "Measure name": "normalized growth", "Number": 0.988}
{"Compound": "CC1(C)C2CC[C@]3(C)C(C(=O)C=C4[C@@H]5C[C@@](C)(C(=O)O)CC[C@]5(C)CC[C@]43C)[C@@]2(C)CC[C@@H]1O (stereo not given in full)", "Measure name": "normalized growth", "Number": 1.04}
{"Compound": "Nc1nc2[nH]c(=O)c(=O)[nH]c2c(=O)[nH]1", "Measure name": "normalized growth", "Number": 1.01}
{"Compound": "COc1ccc(-c2coc3c(OC)c(OC)cc(O)c3c2=O)cc1", "Measure name": "normalized growth", "Number": 1.01}

Entry source: PubChem BioAssay AID1159580
